molecular target: Melatonin receptor type 1A (Homo sapiens, UniProt P48039)
Sequence (P48039 whole entry): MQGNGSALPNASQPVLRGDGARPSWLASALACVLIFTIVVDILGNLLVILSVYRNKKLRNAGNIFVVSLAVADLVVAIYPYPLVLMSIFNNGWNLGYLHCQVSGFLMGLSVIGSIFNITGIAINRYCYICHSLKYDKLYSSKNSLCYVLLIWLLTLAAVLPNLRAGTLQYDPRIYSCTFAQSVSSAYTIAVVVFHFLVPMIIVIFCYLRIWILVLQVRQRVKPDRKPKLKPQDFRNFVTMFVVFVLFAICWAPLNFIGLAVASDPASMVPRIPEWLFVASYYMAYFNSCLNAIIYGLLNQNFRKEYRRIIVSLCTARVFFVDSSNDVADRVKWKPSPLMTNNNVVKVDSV
In this section we review reported Ki values for a set of compounds.
Measure: Ki (µM)

# Entry smiles, Measure, Numeric value
rows = [
    ("CC(=O)NCCN(C)c1cccc(OCCCCOc2cccc(O)c2)c1", "Ki", 0.186),
    ("CC(=O)NCCc1c(Br)[nH]c2ccc(OCCCCCCNC(=O)Oc3cccc(-c4ccccc4)c3)cc12", "Ki", 0.000776),
    ("CC(=O)NCCN(C)c1cccc(OCCCCOc2cccc(OC(=O)NC3CCCCC3)c2)c1", "Ki", 0.0347),
    ("CC(=O)NCCN(C)c1cccc(OCCCCCCNC(=O)Oc2cccc(-c3ccccc3)c2)c1", "Ki", 0.0214),
    ("CC(=O)NCCN(C)c1cccc(OCCCCCCNC(=O)Oc2cccc(-c3cccc(C(N)=O)c3)c2)c1", "Ki", 0.0389),
    ("CC(=O)NCCN(C)c1cccc(OCCCCCCCCNC(=O)Oc2cccc(-c3ccccc3)c2)c1", "Ki", 0.0316),
    ("CC(=O)NCCN(C)c1cccc(OCCCCNC(=O)Oc2cccc(-c3ccccc3)c2)c1", "Ki", 0.0129),
    ("CC(=O)NCCc1c[nH]c2ccc(OCCCCCCNC(=O)Oc3cccc(-c4ccccc4)c3)cc12", "Ki", 0.00603),
    ("CC(=O)NCCN(C)c1cccc(OCCCCCCOc2cccc(OC(=O)NC3CCCCC3)c2)c1", "Ki", 0.0275),
]
